test system: endothelial cells; assay: Inhibition of Endothelial Cell Tube Formation (Matrigel, FGF2-stimulated); assay type: cell-based, Human; details: Homo sapiens, Endothelial cell; FGF2 + analog; all compounds tested at 3 μM; n = 3; read-out: Man % Inhibition +/− SD
metric_name: inhibition at 3 µM (%)
Answers are plain numbers, in %.

Consider the following illustrative entries.
query: What measured inhibition at 3 µM is associated with CS(=O)(=O)CS(C)(=O)=O on endothelial cells?
result: 41.5

query: What measured inhibition at 3 µM is associated with CCS(=O)(=O)CC on endothelial cells?
result: 47.6

New cases:
query: What measured inhibition at 3 µM is associated with O=S1(=O)CCCC1 on endothelial cells?
result: 66.5

* * *

test system: endothelial cells; experiment: Inhibition of Endothelial Cell Tube Formation (Matrigel, FGF2-stimulated); format: cell-based, Human; details: FGF2 + analog; all compounds tested at 3 μM; n = 3
metric_name: Length(mm) ± SEM

query: # lookup: Length(mm) ± SEM of O=S(=O)(c1ccccc1)c1ccccc1 [Example 15]
result: 23.43 ± 2.5 mm

query: # lookup: Length(mm) ± SEM of O=S1(=O)C=CC1 [Example 1]
result: 20.64 ± 0.68 mm

query: # lookup: Length(mm) ± SEM of CS(=O)(=O)C(Cl)(Cl)Cl [Example 9]
result: 21.95 ± 3.1 mm

Consider the following items and state reported Length(mm) ± SEM for each.
1. CCS(=O)(=O)CC [Example 19]
2. CCCCS(=O)(=O)CCCC [Example 3]
3. C[Se](=O)c1ccccc1 (stereo not shown) [Example 18]
4. O=C(O)C[Se](=O)(=O)CC(=O)O [Example 20]

result:
["28.46 ± 25.7 mm", "25.41 ± 1.1 mm", "28.22 ± 0.92 mm", "25.11 ± 3.1 mm"]

* * *

system: FGF2-induced angiogenesis in chick chorioalloantoic membranes; experiment: Neovascularization in the Chick Chorioalloantoic Membrane (CAM), FGF2-stimulated CAM Model; assay type: in vivo; conditions: Gallus gallus; FGF2 + analog, 10 uM (Table 4); read-out: % inhibition ± SEM Branch point in CAM
Where inhibition at 10 µM equals or exceeds 40%, the correct label is MET; where it does not, the label is NOT MET.

The following compounds have reported results that may help.
query: Is inhibition at 10 µM at least 40%? Consider CS(=O)(=O)c1ccccc1
result: NOT MET

query: Is inhibition at 10 µM at least 40%? Consider O=S1(=O)CC=CC1
result: MET

query: Is inhibition at 10 µM at least 40%? Consider CCS(=O)(=O)CC
result: MET

query: Is inhibition at 10 µM at least 40%? Consider O=S(=O)(c1ccccc1)c1ccccc1
result: NOT MET

query: Is inhibition at 10 µM at least 40%? Consider CSCS(C)(=O)=O
result: NOT MET

New cases:
query: Is inhibition at 10 µM at least 40%? Consider O=S1(=O)C=CC1
result: MET

query: Is inhibition at 10 µM at least 40%? Consider O=S1(=O)CCCC1
result: MET

query: Is inhibition at 10 µM at least 40%? Consider O=[Se](=O)(c1ccccc1)c1ccccc1
result: MET

query: Is inhibition at 10 µM at least 40%? Consider CCCCS(=O)(=O)CCCC
result: MET

query: Is inhibition at 10 µM at least 40%? Consider O=S1(=O)CC2(C1)CS(=O)(=O)C2
result: NOT MET
